Measured IC50 by item
- test target: human GPR68 (Homo sapiens, UniProt Q15743)
- Construct: encoding full-length human GPR68 (uniprot ID: Q15743); expressed in transfected cells; host or cells: HEK293T
- Sequence (Q15743 whole entry): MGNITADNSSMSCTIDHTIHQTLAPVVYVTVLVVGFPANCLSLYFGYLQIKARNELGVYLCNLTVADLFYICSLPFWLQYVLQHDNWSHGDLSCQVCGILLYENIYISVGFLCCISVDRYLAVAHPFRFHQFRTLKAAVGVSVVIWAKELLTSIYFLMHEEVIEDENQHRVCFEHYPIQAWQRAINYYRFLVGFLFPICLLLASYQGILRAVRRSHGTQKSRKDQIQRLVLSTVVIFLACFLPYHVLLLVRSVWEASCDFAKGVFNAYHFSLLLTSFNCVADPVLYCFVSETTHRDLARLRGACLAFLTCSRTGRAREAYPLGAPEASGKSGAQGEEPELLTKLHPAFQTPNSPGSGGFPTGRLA
- assay overview: GPR68 Biochemical Assay (Promega GloSensor cAMP assay, GPR68 antagonism)
- Assay type: cell-based
- experimental setup: HEK293T cells transiently expressing hGPR68, antagonism of pH 5.5 stimulated cAMP, 15 min, read-out: hGPR68 IC50

Examples with answers:
- molecule: "CCC1(CC)CC(NC(=O)c2ccnc3c(C(N)=O)cnn23)C1 [Compound 10]"
  test target: "human GPR68 (Homo sapiens, UniProt Q15743)"
  result: "50000 to 100000 nM"
- molecule: "NC(=O)c1c(C2CC2)nn2c(C(=O)NC3CC(F)(F)c4ccccc43)ccnc12 (stereo not drawn) [Compound 112]"
  test target: "human GPR68 (Homo sapiens, UniProt Q15743)"
  result: "< 50 nM"
- molecule: "COCc1nn2c(C(=O)NCc3ccc(O)cc3)ccnc2c1C(N)=O [Compound 197]"
  test target: "human GPR68 (Homo sapiens, UniProt Q15743)"
  result: "500 to 5000 nM"
- molecule: "Cc1nn2c(C(=O)N[C@H]3C[C@@H](C#N)C3)ccnc2c1C(N)=O [Compound 50]"
  test target: "human GPR68 (Homo sapiens, UniProt Q15743)"
  result: "500 to 5000 nM"
- molecule: "COCc1nn2c(C(=O)NCC3CC3)ccnc2c1C(N)=O [Compound 81]"
  test target: "human GPR68 (Homo sapiens, UniProt Q15743)"
  result: "50 to 500 nM"
- molecule: "N#Cc1nn2c(C(=O)NC3Cc4ccccc4C3)ccnc2c1C(N)=O [Compound 21]"
  test target: "human GPR68 (Homo sapiens, UniProt Q15743)"
  result: "50 to 500 nM"
- molecule: "Cc1nn2c(C(=O)NC3Cc4ccccc4C3)ccnc2c1C(N)=O [Compound 46]"
  test target: "human GPR68 (Homo sapiens, UniProt Q15743)"
  result: "< 50 nM"
- molecule: "COCc1nn2c(C(=O)NC3Cc4ccc(Cl)cc4C3)ccnc2c1C(N)=O (stereo not drawn) [Compound 87]"
  test target: "human GPR68 (Homo sapiens, UniProt Q15743)"
  result: "< 50 nM"

Query: Which IC50 reading was recorded for the molecule COCc1nn2c(C(=O)NC3CCS(=O)(=O)c4ccccc43)ccnc2c1C(N)=O (stereo not drawn) [Compound 189] ?
Result: < 50 nM

* * *

- test target: human GPR68 (Homo sapiens)
- Construct: encoding full-length human GPR68 (uniprot ID: Q15743); expressed in transfected cells; host or cells: HEK293T
- assay overview: GPR68 Biochemical Assay (Promega GloSensor cAMP assay, GPR68 antagonism)
- Type: cell-based
- experimental setup: HEK293T cells transiently expressing hGPR68, antagonism of pH 5.5 stimulated cAMP, 15 min, read-out: hGPR68 IC50
pIC50: −log10 of the molar value.
experimental endpoint: pIC50

Examples with answers:
- molecule: "CNc1nn2c(C(=O)NC3Cc4ccccc4C3)ccnc2c1C(N)=O [Compound 159]"
  pIC50: "> 7.30"
- molecule: "NC(=O)c1cnn2c(C(=O)NC3Cc4nccn4C3)ccnc12 (stereo not drawn) [Compound 19]"
  pIC50: "4.30 to 5.30"
- molecule: "COCc1nn2c(C(=O)NC3CCC(F)(F)c4ccccc43)ccnc2c1C(N)=O (stereo not drawn) [Compound 116]"
  pIC50: "> 7.30"
- molecule: "NC(=O)c1c(C2CC2)nc2c(C(=O)NC3Cc4cscc4C3)ccnn12 [Compound 208]"
  pIC50: "> 7.30"
- molecule: "COCc1nn2c(C(=O)NCc3ccc(C)cc3)ccnc2c1C(N)=O [Compound 72]"
  pIC50: "> 7.30"

Query: Which pIC50 reading was recorded for the molecule NC(=O)c1c(C2CC2)nn2c(C(=O)NC3Cc4cccnc4C3)ccnc12 (stereo not drawn) [Compound 115] ?
Result: > 7.30

Query: Now give it for NC(=O)c1cnn2c(C(=O)N[C@H]3C[C@@H](OC(F)(F)F)C3)ccnc12 [Compound 18] too.
Result: 5.30 to 6.30

Query: Now give it for COCc1nn2c(C(=O)N[C@H]3C[C@H](OC(F)(F)F)C3)ccnc2c1C(N)=O [Compound 224] too.
Result: 6.30 to 7.30

Query: Now give it for COCc1nn2c(C(=O)NC3Cc4cscc4C3)ccnc2c1C(N)=O [Compound 85] too.
Result: > 7.30
